experiment: Biodistribution in Jurkat tumor-bearing CB-17 SCID mice; assay type: in vivo; conditions: female, CB-17 SCID, mouse, in vivo, iv, total radioactivity, % iD/g Bone
Non-standard residues stand in square brackets, D forms with d. Residues, ends and D or L forms follow the SMILES beside them. Groups on a side chain read outwards from the residue. *: point of attachment. DOTA = O=C(O)CN1CCN(CC(=O)O)CCN(CC(=O)*)CCN(CC(=O)O)CC1; dTyr(3-I) = N[C@H](Cc1ccc(O)c(I)c1)C(=O)O; 2Nal = N[C@@H](Cc1ccc2ccccc2c1)C(=O)O; dNMeOrn = CN[C@H](CCCN)C(=O)O; HYNIC = NNc1ccc(C(=O)*)cn1; 4Amb = NCc1ccc(C(=O)O)cc1; 4Abz = Nc1ccc(C(=O)O)cc1; dDap = NC[C@@H](N)C(=O)O
What tissue uptake at 1 h was measured for each of the following?
State the answer as a number, implicitly in %ID/g.

Q: Item under review: CN1C(=O)[C@@H](Cc2ccc(O)cc2)NC(=O)CNC(=O)[C@H](Cc2ccc3ccccc3c2)NC(=O)[C@H](CCCNC(=N)N)NC(=O)[C@H]1CCCNC(=O)c1ccc(CNC(=O)CN2CCN(CC(=O)O)CCN(CC(=O)O)CCN(CC(=O)O)CC2)cc1 [^68Ga-Pentixafor, metal not drawn, reference compound] (cyclo([dY][dNMeOrn]([4Amb-DOTA])R[2Nal]G)) . Reported tissue uptake at 1 h?
Result: 0.48

Q: Request: C[C@@H](NC(=O)[C@@H](CCCNC(=N)N)NC(=O)[C@@H](CN)NC(=O)CN1CCN(CC(=O)O)CCN(CC(=O)O)CCN(CC(=O)O)CC1)C(=O)NCc1ccc(C(=O)NCCC[C@@H]2C(=O)N[C@@H](CCCNC(=N)N)C(=O)N[C@@H](Cc3ccc4ccccc4c3)C(=O)NCC(=O)N[C@H](Cc3ccc(O)cc3)C(=O)N2C)cc1 [CXCR4-DOTA-1 [Lu]] (cyclo([dY][dNMeOrn]([4Amb-dA-dR-dDap-DOTA])R[2Nal]G))
Result: 0.72

Q: Request: C[C@@H](NC(=O)[C@@H](CCCNC(=N)N)NC(=O)[C@@H](CN)NC(=O)CCCCCNC(=O)[C@@H](CNC(=O)CN1CCN(CC(=O)O)CCN(CC(=O)O)CCN(CC(=O)O)CC1)NC(=O)CCCCC[N+]1=C(/C=C/C=C/C=C2/N(C)c3ccc(S(=O)(=O)O)cc3C2(C)C)C(C)(C)c2cc(S(=O)(=O)[O-])ccc21)C(=O)Nc1ccc(C(=O)NCCC[C@@H]2C(=O)N[C@@H](CCCNC(=N)N)C(=O)N[C@@H](Cc3ccc4ccccc4c3)C(=O)NCC(=O)N[C@H](Cc3ccc(O)cc3)C(=O)N2C)cc1 [[^natLu]CXCR4-OI-3, metal not drawn]
Result: 1.1

Q: Request: C[C@@H](NC(=O)[C@@H](CCCNC(=N)N)NC(=O)[C@@H](CN)NC(=O)c1ccc(NN)nc1)C(=O)Nc1ccc(C(=O)NCCC[C@@H]2C(=O)N[C@@H](CCCNC(=N)N)C(=O)N[C@@H](Cc3ccc4ccccc4c3)C(=O)NCC(=O)N[C@H](Cc3ccc(O)cc3)C(=O)N2C)cc1 [Tc-CXCR4-13] (cyclo([dY][dNMeOrn]([4Abz-dA-dR-dDap-HYNIC])R[2Nal]G))
Result: 0.81

Q: Request: C[C@@H](NC(=O)[C@@H](CCCNC(=N)N)NC(=O)[C@@H](CN)NC(=O)CN1CCN(CC(=O)O)CCN(CC(=O)O)CCN(CC(=O)O)CC1)C(=O)Nc1ccc(C(=O)NCCC[C@@H]2C(=O)N[C@@H](CCCNC(=N)N)C(=O)N[C@@H](Cc3ccc4ccccc4c3)C(=O)NCC(=O)N[C@H](Cc3ccc(O)cc3)C(=O)N2C)cc1 [CXCR4-DOTA-3 [Lu]] (cyclo([dY][dNMeOrn]([4Abz-dA-dR-dDap-DOTA])R[2Nal]G))
Result: 0.55

Q: Request: C[C@@H](NC(=O)[C@@H](CCCNC(=N)N)NC(=O)[C@@H](CN)NC(=O)CN1CCN(CC(=O)O)CCN(CC(=O)O)CCN(CC(=O)O)CC1)C(=O)Nc1ccc(C(=O)NCCC[C@@H]2C(=O)N[C@@H](CCCNC(=N)N)C(=O)N[C@@H](Cc3ccc4ccccc4c3)C(=O)NCC(=O)N[C@H](Cc3ccc(O)c(I)c3)C(=O)N2C)cc1 [CXCR4-DOTA-4 [Lu]] (cyclo([dTyr(3-I)][dNMeOrn]([4Abz-dA-dR-dDap-DOTA])R[2Nal]G))
Result: 1.07

Q: Request: C[C@@H](NC(=O)[C@@H](CCCNC(=N)N)NC(=O)[C@@H](CN)NC(=O)CN1CCN(CC(=O)O)CCN(CC(=O)O)CCN(CC(=O)O)CC1)C(=O)NCc1ccc(C(=O)NCCC[C@@H]2C(=O)N[C@@H](CCCNC(=N)N)C(=O)N[C@@H](Cc3ccc4ccccc4c3)C(=O)NCC(=O)N[C@H](Cc3ccc(O)c(I)c3)C(=O)N2C)cc1 [CXCR4-DOTA-2 [Lu]] (cyclo([dTyr(3-I)][dNMeOrn]([4Amb-dA-dR-dDap-DOTA])R[2Nal]G))
Result: 0.9
